- TESTED_TARGET: TAG72 positive bovine submaxillary mucin (BSM) (bovine)
- MEASUREMENT_NOTES: relative affinity constant from competition RIA on BSM
OBSERVED_PROPERTY: fold less than the Ka of HuCC49

>  <BINDER>
HuCC49 variant ^97L1,2 (antibody, V domains shown) VH: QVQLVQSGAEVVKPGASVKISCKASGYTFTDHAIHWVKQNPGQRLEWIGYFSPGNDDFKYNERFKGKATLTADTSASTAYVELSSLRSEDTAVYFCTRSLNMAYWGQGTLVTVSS VL: DIVMSQSPDSLAVSLGERVTLNCKSSQSVLYSSNSKNYLAWYQQKPGQSPKLLIYWASTRESGVPDRFSGSGSGTDFTLTISSVQAEDVAVYYCQQYYSYPLSFGAGTKLELK

>  <OBSERVED_PROPERTY>
fold less than the Ka of HuCC49

>  <VALUE>
2 to 3 fold

$$$$
